experiment: yeast display, Sf9 membrane polyspecificity reagent, FACS + sequencing; frameworks hold sequencing errors

chain_sequence | polyreactivity (PSR sort gate)
QDQLVESGGGLVQAGGSLRLSCAASGSIFSNNAMGWYRQAPGKERELVATITFSGGNTYYADSVKGRFTISRDNAKNTVYLQMNSLKPEDTAVYYCNADRYPVGTAREYDSWGQGTQVTVSS | low polyreactivity
QVQLVESGGGLVQAGGSLRLSCAASGFIFRQYAMGWYRQAPGKERELVAAISVGGGRTYYADSVKGRFTISRDNAKNTVYLQMNSLKPEVTAVYYCAASNWHSRGSGEYYWGQGTQVTVSS | high polyreactivity
QVQLVESGGGLVQAGGSLRLSCAASGSTFTSYAMGWYRQAPGKERELVASISRSGGSTYYADSVKGRFTISRDNAKNTVYLQMNSLKPEDTAVYYCAVRSVTWHGYWGQGTQVTVSS | high polyreactivity
QVQLVESAGGLVQAGGSLRLSCAASGRIFKFYTMGWYRQAPGKERELVAAISSSDGSTHYADSVKGRFTISRDNAKNTVYLQMNSLKPEDTAVYYCAAQGGRNRGYRYYWGQGTQVTVSS | high polyreactivity
QVQLVESGGGLVQAGGSLRLSCAASGITFAKYAMGWYRQAPGKERELVAAISTSGGSTYYADSVKGRFTISRDNAKNTVYLQMYSLKPEDTAVYYCNVDTYIWYYLRYYNYWGQGTQVTVSS | high polyreactivity
QVQLVESGGGLVQAGGSLRLSCAASGRTFRPYAMGWYRQAPGKERELDAAIDSSGTSTYYADSVKGRFTISRDNAKNTVYLQMNSLKPEDTAVYYCAKAWPDHWFSRYDYWGQGTQVTVSS | low polyreactivity
QVQLVESGGGLVQAGGSLRLSCAASGRTLSANAMGWYRQAPGKERELVATNSTRGGRTYYADSVKGRFTISRDNAKNTVYLQMNSLKPEDTAVYYCAVTIRAKYTLKEDYWGQGTQVTVSS | low polyreactivity
QVQLVESGGGLVQAGGSLRLSCAASGFTFRRYAMGWYRQAPGKERVLVAAISRGGSSTYYADSVKGRFTISRDNAKNTVYLQMNSLKPEDTAVYYCNARTYVALGFNYWGQGTQVTVSS | high polyreactivity
QVQLVESVGGLVQAGGSLRLSCAASGITFRYYAMGWYRQAPGKERELVADINRGSDTNYADSVKGRFTISRDNAKNTVYLQMNSLKPEDTAVYYCAARSFRSRFRLYIVEFGGYDYWGQGTQVTVSS | low polyreactivity
QVQLVESGGGLVQAGGSLRLSCAASGSTFRSYAMGWYRQAPGKERESVARISYRTGSTYYADSVKGRFTISRDNAKNTVYLQMNSLEPEDTAVYYCATRGSYVGGLYDYWGQGTQVTVSS | high polyreactivity
QVQLVESGGGLVQAGGSLRLSCAASGSTLSQYAMGWYRQAPGKERELVAAISGGGRTYYADSVKGRFTISRDNAKNTVYLQMNSLKPEDTAVYYCAKVRLKKGTRDSYDYWGQGTQVTVSS | high polyreactivity

----------
experiment: yeast display, Sf9 membrane polyspecificity reagent, FACS + sequencing; frameworks hold sequencing errors
measurement_kind: polyreactivity (PSR sort gate)

chain_sequence | measurement_kind | reported_measurement
QVQLVESGGGLVQAGGSLRLSCAASGSTFDYNTMGWYRQAPGTERELVADITWRGASTYYADSVKGRFTISRDNAKNTVYLQMNSLKPEDTAVYYCAADYYSATGSYAYDYWGQGTQVTVSS | polyreactivity (PSR sort gate) | low polyreactivity
QVQLVESGGGLVQAGGSLRLSCAASGSIFAFNAMGWYRQAPGKERELVAAITSGGNTYYADSVKGRFTISRDNAKNTVYLQMNSLKPEDTAVYYWATVFSVQGWYFGMNYWGQGTQVTVSS | polyreactivity (PSR sort gate) | low polyreactivity
QVHLVESGGGLVQAGGSLRLSSADSGRIFTTYVMGWYRQAPGQESELVAAISARGSTYYADSVKGRFTISRDNAKNTVYLQMNSLKPEDNAVYYCAAGHRLPVYYVYPRATYNYWRQGTQVTVSS | polyreactivity (PSR sort gate) | low polyreactivity
QLQLVESGGGLVQAGGSLRLSCAASGFIDAYTMGWYRQAPGKERELVAAITWSGGRTYYADSVKGRFTISRDNAKNTVYIQRNSLKPEDNAVYYCAKDVTPYSPDEDYWGQGSQVTVSS | polyreactivity (PSR sort gate) | low polyreactivity
QVQLVESGGGLVQAGGSLRLSCAASGRTFGNNAMGWYRQAPGKERELVASISSSGGTNYADSVKGRFTISRDNAKNTVYLLMNSLIPEDTAVYYCAKRKFTARQRFWGQGTQVTVSS | polyreactivity (PSR sort gate) | high polyreactivity
QVQLVESGGGLVKAGGSLRLSCAASGSTFHIYAMGWYRQAPGKERELVAAISKGGGNTYYADSVKGRFTISRDNAKNTVYLQMNSLKPEDTAVYYCAAVPTRYRSYTYTYGGYNYWGQGTQVTVSS | polyreactivity (PSR sort gate) | high polyreactivity
QVQLVESGGGLVQAGGSLRLSCADSGSTFWFYAMGWYRQAPGKERELVAVISNSGSTYYADSVKGRYTISRDNAKNTVSLQMNSLKPEDTAVYYCNKDGGGDSYWYVYWGQGTQVTVSS | polyreactivity (PSR sort gate) | low polyreactivity
QDQLVESGGGLVQAGGSLRLSCAASGRTFRVYAMGWYRQAPGKERELVATITSSGGSTYYADSVKGRFTISRDNAKNTVYLQMNCLKPEDTAVYYCAADGGSASIHDYWGQGTQVTVSS | polyreactivity (PSR sort gate) | low polyreactivity
QVQLVESGGGLVQAGGSLRLSCAASGSIIAGNVMGWYRQAPGKERELVAAISRRGGRTYYADSVKGRFTISRDNAKNTVYLQMNSLKPEDTAVYYCAARRDPVLGKSDFWGQGTQVTVSS | polyreactivity (PSR sort gate) | high polyreactivity
QVQLVESGGGLVQAGGSLRLSCAASGSTFRLYAMGCYRPAPGKERELVAVISRSGGRTYADSVKGRFTISRDNAKNTVYLQMNSLKPEDTAVYYCAKARHKSPTYTHDSWGQGTQVTVSS | polyreactivity (PSR sort gate) | high polyreactivity
QVHLVESGGGIVQAGGSLRLSCAASGRTFVVYAMGWYRPATGKQLELVAAIRRIDGRTYYADSVKGRFTISRDNAKNTVYLQMNCLKPEDTAVYYCAADWVGATGYLYGYWGQGNQVTVSS | polyreactivity (PSR sort gate) | low polyreactivity

----------
test: yeast display, Sf9 membrane polyspecificity reagent, FACS + sequencing; frameworks hold sequencing errors
measurement_kind: polyreactivity (PSR sort gate)

chain_sequence | reported_measurement
QVQLVESGGGLLQAGGSLRLIWAASGIIFVKNSMGWYRQAPGKERELVAAITVSGSRTYYADSVKGRFTISRDNAKNTVYLQMNSLKPEDTAVYYCNAYPYYRGRNMDSWGQGTQVTVSS | high polyreactivity
QVQLVESGGGLVQAGGSLRLICAASGITFVYYAMGWYRQAPGKERELVAAISTSGDSTYYADSVKGRFTISRDNAKNTVYLPMNSLKPEDTAVYYCAADADYYQYGWRVYYWGQGTQVTVSS | low polyreactivity
QVQLVESGGGLVQAGGSLRLSCAASGHIFANYAMGWYRQAPGKERELVAAIRWSASRTYYADSVKGRFTISRDYAKNTVFLQLNSLKPEDTAVYYCAATIYTFWAYYYDYWGQGTQVTVSS | high polyreactivity
QVQLVESGGGLVQAGGSLRLSCAASGSIFRAYAMGWYRQAPGKERELVADISRSGGSTYYADSVKGRFTISRDNAKNTVYLQMNSLKPEDTAVYYCAAVFYLYSNLYGEYDYWGQGTQVTVSS | low polyreactivity
QVQLVESGGGLVQAGGSLRLSCAASGYIFGQNHMGWYRQAPGKERELVAAISSDGSTYYADSVKGRFTISRDNAKNTVYLQMNSLKQEDTAVYYCKYYHQRFPYRQVYYWGQGTQVTVSS | low polyreactivity
QVQLVESGGGLVQAGGSLRLSCAASGSTFSSYAMGWYRQAPGKERELVAAITSRGSRTFYADSVKGRFTISRDNAKNTVYLQMNSLKPEDTAVYYCAAYFRIGTFGQYDYWGQGTQVTVSS | high polyreactivity
QVQLVESGGGLVQAGGSLRLSCAASGRIYDDYAMGWYRQAPGKERELVAAISSSGGSTYYADSVKGRFTISRDNAKNTVYLQMNSLKPEDTAVYYCARYPPGRRRYEYWGQGTQVTVSS | high polyreactivity
QVQLVESGGGLVQAGGSLRLSCAASGRTFYYNAMGWYRQAPGKERELVAAISSRGGNTYYADSVKGRFTISRDNAKNTVYYQMNSLKPEDTAVYYCARRYPYPAYEYGYWGQGTQVTVSS | high polyreactivity
QVQLVESGGGLVQAGGSLRLSCAASGSTFGTYGMGWSRQAPGKERESVADITSGGSTYYADSVKGRFTISRDNAKNTVYLQMNSLKPEDTAVYSCAASWFVWSTAVPYDYWGQGTQVTVSS | low polyreactivity
QVQLVESGGGLDQAGGSLRLSCVASGSIFRGNAMGWYRQAPGKERELVASISKGGGSTYYADSVKGRFIISRDNAKNTVYLQMNSLKPEDTAVYYCNAQFYNSGWSFKYYYWGQGTQVTVSS | low polyreactivity
QVQLVESGGGLVQAGGSLRLSCAATVSTIKTYATMGLYRQAPWTERELVAAITSGSSTNYADSVKGRFTISRDNAKNTVYLQMNSMKPEDTAVYYCAADDYYNWYLGEPGDYWGQGTQVTVSS | low polyreactivity
